Entries and their CC50 at 1 day values follow.
# Method Description: Cytotoxicity test in HEp-2 cells (CCK8 cell viability)
# Assay type: cell-based
# Settings: human; HEp-2 cells, CCK8, 1 day; read-out: CC50
The star is where a group is joined. Succinyl(4-O-cholesteryl) = CC(C)CCC[C@@H](C)[C@H]1CC[C@H]2[C@@H]3CC=C4C[C@@H](OC(=O)CCC(=O)*)CC[C@]4(C)[C@H]3CC[C@]12C; X1 = CC(C)CCCC(C)C1CCC2C3CC=C4CC(OC(=O)CCC(=O)*)CCC4(C)C3CCC12C

Worked cases, answers included:
> print(dat)
                                  substance  readout.label  endpoint.result
1  Ac-FDFDEFDASISQVNEKINESLAFIRLAFIRKSDELLEAAAKK-NH2 [Compound 24]  CC50 at 1 day           > 8 µM
2  Ac-LVKKIDEFDASISQVNEKINQSLEEIRKSDELLHNVGSGSGK(Succinyl(4-O-cholesteryl))-NH2 [Compound 29]  CC50 at 1 day            15 µM
3  Ac-WDEFDKKIEEVNKKIEESLKKIEESDKKLEEVNKKLEAAAKK(X1)-NH2 [Compound 9]  CC50 at 1 day           > 8 µM
4  Ac-FDASISQVNEKINQSLAFIRKSDELLHNVNAGKSTTEAAAKK(X1)-NH2 [Positive polypeptide 7, reference compound]  CC50 at 1 day          > 10 µM
5  Ac-FDEEISQVNEKINQSLAFIRKSDELLHNVNAGKSTTEAAAKK(Succinyl(4-O-cholesteryl))-NH2 [Compound 26]  CC50 at 1 day         > 100 µM

Task item: If you can, please state the reported CC50 at 1 day value of Ac-WDEFDASISQVNEKINQSLEEIRKSDELLHNVNALEAAAKK(Succinyl(4-O-cholesteryl))-NH2 [Compound 38] .
Reply: 10.9 µM

Task item: Look at this substance and give its reported CC50 at 1 day. Ac-SLEQVNEKINQSLAFIRKSDEINQSDEEVNKSDELLEAAAKK-NH2 [Compound 50]
Reply: 32.6 µM

Task item: Given Ac-WDEFDKKIEEVNKKIEESLKKIEESDKKLEEVNKKLGSGSGK(X1)-NH2 [Compound 11] , state its recorded CC50 at 1 day.
Reply: > 8 µM

Task item: Can you look up the measured CC50 at 1 day of Ac-WDEFDASISQVNEKINQSLEEIRKSDELLHNVNAGLGSGSGK(Succinyl(4-O-cholesteryl))-NH2 [Compound 27] for me?
Reply: 18.4 µM
